Measured IC50 values are reported for all entries that follow.
- Test system: RAW264.7
- assay_protocol: Antiinflammatory activity in mouse RAW264.7 cells assessed as inhibition of LPS-induced NO production pretreated with compound for 2 hrs followed by LPS stimulation measured after 18 hrs by gGriess reagent based assay
- Assay type: functional, cell-based
property_measured: IC50 (µM)

compound	qualifier_symbol	test_result
COc1cc(/C=C/CO[C@@H]2O[C@H](CO)[C@@H](O)[C@H](O)[C@H]2O)cc(OC)c1O[C@@H]1O[C@H](CO)[C@@H](O)[C@H](O)[C@H]1O	=	16.6
COC/C=C/c1cc(OC)c(O[C@@H]2O[C@H](CO)[C@@H](O)[C@H](O)[C@H]2O)c(OC)c1	=	14.6
COc1cc(/C=C/CO)cc(OC)c1O[C@@H]1O[C@H](CO)[C@@H](O)[C@H](O)[C@H]1O	=	17.2
CCOC/C=C/c1cc(OC)c(O[C@@H]2O[C@H](CO)[C@@H](O)[C@H](O)[C@H]2O)c(OC)c1	>	100
COc1cc([C@H](O)[C@H](O)CO)cc(OC)c1O[C@@H]1O[C@H](CO)[C@@H](O)[C@H](O)[C@H]1O	=	25.1
COc1cc([C@@H](O)[C@@H](O)CO)cc(OC)c1O[C@@H]1O[C@H](CO)[C@@H](O)[C@H](O)[C@H]1O	=	15.4
COc1cc(CCCO)cc(OC)c1O[C@@H]1O[C@H](CO)[C@@H](O)[C@H](O)[C@H]1O [DIHYDROSYRINGIN]	>	100
COC(=O)/C=C/c1cc(OC)c(O[C@@H]2O[C@H](CO)[C@@H](O)[C@H](O)[C@H]2O)c(OC)c1	=	20.4
Cc1ccc(-c2cc(C(F)(F)F)nn2-c2ccc(S(N)(=O)=O)cc2)cc1	=	2.3
COc1cc(/C=C/C(=O)O)cc(OC)c1O[C@@H]1O[C@H](CO)[C@@H](O)[C@H](O)[C@H]1O	=	18.7
CCCCOC/C=C/c1cc(OC)c(O[C@@H]2O[C@H](CO)[C@@H](O)[C@H](O)[C@H]2O)c(OC)c1	>	100
COc1cc(/C=C/C=O)cc(OC)c1O[C@@H]1O[C@H](CO)[C@@H](O)[C@H](O)[C@H]1O [SINAPALDEHYDE GLUCOSIDE]	>	100
COc1cc(/C=C/COC/C=C/c2cc(OC)c(O[C@@H]3O[C@H](CO)[C@@H](O)[C@H](O)[C@H]3O)c(OC)c2)cc(OC)c1O[C@@H]1O[C@H](CO)[C@@H](O)[C@H](O)[C@H]1O	>	100
